- Target: full-length Spike of SARS-CoV-2 (UniProtKB-P0DTC2) expressed on 293T cells (SARS-CoV-2, UniProt P0DTC2)
- Experimental Details: flow cytometry on cells
Assay Metric: binding result

Ab496 recombinant monoclonal antibody (IgG) (antibody, V domains shown) VH: EVQLVQSGPEVKKPGTSVKVSCKASGFIFTNSAVQWVRQARGQRLEWIGWIVVGSGNPNYAQKFQERVTITRDRSTSTAYMELSSLTSEDTAVYYCAAFPYYYDNSGSGPWGQGTLVTVSS VL: DIQLTQSPSSLSASVGDRVTITCQASQDIRNNLNWYQQIPGKAPKLLIYDASNLETGVPSRFSGSASGTDFTFTISSLQPEDVATYYCQQYANLPPFTFGPGTKVDIK; binds
Ab159 recombinant monoclonal antibody (IgG) (antibody, V domains shown) VH: QVQLVESGGGLVKPGGSLRLSCAASGFTFNNAWMSWVRQAPGKGLEWVGRIKSKTDGGTTDYAAPVKGRFTFSRDDSKNTLYLQMSSLKTEDTALYYCTTADYDILTGTPASPYWGQGTLVTVSS VL: DIQMTQSPSSLSASVGDRVTITCRASQSITNYLNWYQQKPGKAPKFLIYAASSLQGGVPSRFRGSGSGTDFTLTISSLQPEDFATYYCQQTYSTLWTFGQGTKVEIK; binds
Ab354 recombinant monoclonal antibody (IgG) (antibody, V domains shown) VH: QVQLVQSGAEVKKPGASVTVSCKASGFLFTGYYMHWVRQAPGQGLEWMGWINPNSGASNYTRKFQGRVTMTRDTSISATYMKLSRLTSDDTAVYYCARDLAFSMVRGALDYWGQGTLVTVSS VL: QLVLTQPPSASGSPGQSVTISCTGTSSDVGGYNYVSWYQHHPGKAPKLMIYEVSKRPSGVPDRFSGSKSGNTASLTVSGLQAEDEADYYCNSYAGNNNWVFGTGTKVTVL; binds
Ab445 recombinant monoclonal antibody (IgG) (antibody, V domains shown) VH: EVQLVESGGGVVQPGTSPRLSCAASGFTFSNSGMHWVRQAPGKGLEWVAVIWYDGSKKYYVDSVKGRFTISRDNSKNTLYLQMNSLRAEDTAVYYCARDGTVAVRGVMNPFFDYWGQGTLVTVSS VL: DIQLTQSPSSLSASVGDRVTITCQASQDISNYLNWYQQIPGKAPKLLIYDASNLETGVPSRFSGSGSGTDFTFTISSLQPEDIATYYCQQYDNLPYTFGQGTKLEIK; binds
